molecular target: His-LC3B (human, UniProt Q9GZQ8 1-120); assay: ITC; 0.6 mM peptide titrated into 0.06 mM His-LC3/GABARAP protein in 20 steps at 25 °C; 50 mM Tris pH 7.0, 25 mM NaCl; one-site binding model; conditions: both partners purified
property-name: pKd
Bear in mind: pKd is minus log10 of a mol/L concentration; give just that figure.

Data point: DEDPETSWILLN (source: synthetic peptide (GenScript)) [hEPG5-LIR2 peptide] ; pKd = 5.39
